Let's look at some molecules and their measured Emax.
# SYSTEM_TESTED: LXRβ (Homo sapiens)
# Construct: Co-transfection expression plasmids, comprising full-length LXRα (pCMX-h LXRα[…] or LXRβ (pCMX-hLXRβ)); expressed in transfected cells; host or cells: CV-1 African Green Monkey Kidney Cells
# Sequence (P55055 1-460): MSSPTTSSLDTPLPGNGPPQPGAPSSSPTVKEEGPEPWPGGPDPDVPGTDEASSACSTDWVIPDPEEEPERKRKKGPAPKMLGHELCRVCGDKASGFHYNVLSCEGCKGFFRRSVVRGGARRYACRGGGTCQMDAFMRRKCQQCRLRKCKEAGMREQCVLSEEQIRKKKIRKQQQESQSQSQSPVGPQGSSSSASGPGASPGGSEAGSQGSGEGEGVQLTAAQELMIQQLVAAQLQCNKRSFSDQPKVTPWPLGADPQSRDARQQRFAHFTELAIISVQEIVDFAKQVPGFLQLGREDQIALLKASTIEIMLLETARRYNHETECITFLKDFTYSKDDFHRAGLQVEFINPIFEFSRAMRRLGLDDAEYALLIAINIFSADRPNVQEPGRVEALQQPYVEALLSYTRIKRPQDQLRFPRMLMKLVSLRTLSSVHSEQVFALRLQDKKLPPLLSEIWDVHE
# Sequence (P19793 1-462 partner): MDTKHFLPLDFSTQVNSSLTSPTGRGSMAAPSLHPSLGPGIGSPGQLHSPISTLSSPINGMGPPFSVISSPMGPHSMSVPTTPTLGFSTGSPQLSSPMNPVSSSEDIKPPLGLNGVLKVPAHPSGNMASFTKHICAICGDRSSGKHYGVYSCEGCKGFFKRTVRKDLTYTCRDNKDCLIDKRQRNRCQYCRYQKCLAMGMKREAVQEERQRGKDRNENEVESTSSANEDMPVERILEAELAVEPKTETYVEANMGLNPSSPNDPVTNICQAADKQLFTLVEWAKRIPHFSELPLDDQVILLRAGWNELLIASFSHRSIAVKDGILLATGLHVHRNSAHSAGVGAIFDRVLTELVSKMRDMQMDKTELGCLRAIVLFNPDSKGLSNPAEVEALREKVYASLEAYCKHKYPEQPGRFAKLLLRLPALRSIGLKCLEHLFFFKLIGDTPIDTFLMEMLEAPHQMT
# TEST_DETAILS: Co-transfection assay (LXRE luciferase reporter), LXRβ
# Type: cell-based
# ASSAY_CONTEXT: LXRβ co-transfection; relative to high control 1-(2,4-difluorobenzyl)-2-oxo-6-(4-phenoxyphenyl)-4-(trifluoromethyl)-1,2-dihydropyridine-3-carbonitrile; read-out: % Efficacy
Quick reminder: number only, in %, skip the unit.

MOLECULE | Emax, %
Cc1nc(C(F)(F)F)cn1-c1ccc(-c2cc(F)c(CO)c(S(C)(=O)=O)c2)cc1-c1nc(CC(C)O)oc1-c1ccc(OC(F)(F)F)cc1 (stereo not drawn) | 55
Cc1nc(-c2cc(-c3cc(F)c(CO)c(S(C)(=O)=O)c3)ccc2-n2cc(C(F)(F)F)nc2C)c(-c2cncc(Cl)c2)o1 | 76

Here is another molecule to look at.
Data request: Provide the documented Emax with LXRβ (Homo sapiens) as the system for "CS(=O)(=O)c1cccc(-c2cc(F)c(-n3cnc(C(F)(F)F)c3)c(-n3nncc3-c3ccc(Cl)cc3Cl)c2)c1"
Data returned: 102

* * *

# SYSTEM_TESTED: LXRβ (Homo sapiens, UniProt P55055)
# Construct: Co-transfection expression plasmids, comprising full-length LXRα (pCMX-h LXRα[…] or LXRβ (pCMX-hLXRβ))
# TEST_DETAILS: Co-transfection assay (LXRE luciferase reporter), LXRβ
# ASSAY_CONTEXT: CV-1 cells transfected with pCMX-hLXRβ and LXREx1-Tk-Luciferase; 20 hours incubation
REPORTED_ENDPOINT: EC50

Data request: Give its EC50 value. Item: "Cc1nc(-c2cc(-c3cc(F)c(CCO)c(S(C)(=O)=O)c3)ccc2-n2cc(C(F)(F)F)nc2C)c(-c2ccc(OC(F)(F)F)cc2)o1"
Data returned: 54 nM

Data request: Give its EC50 value. Item: "Cc1nc(-c2cc(-c3cc(F)c(CO)c(S(C)(=O)=O)c3)ccc2-n2cc(C(C)(C)O)nc2C)c(-c2ccc3c(c2)OC(F)(F)O3)o1"
Data returned: 1040 nM

Data request: Give its EC50 value. Item: "Cc1nc(C(F)(F)F)cn1-c1ccc(-c2cccc(S(C)(=O)=O)c2)cc1-c1ocnc1-c1ccc(Cl)cc1"
Data returned: 170 nM

Data request: Give its EC50 value. Item: "Cc1nc(-c2cc(-c3cccc(S(C)(=O)=O)c3)ccc2-n2cc(C(F)(F)F)nc2C)c(-c2cccnc2C2CC2)o1"
Data returned: 2080 nM

Data request: Give its EC50 value. Item: "Cc1nc(C(F)(F)F)cn1-c1ccc(-c2cccc(S(C)(=O)=O)c2)cc1-n1nncc1-c1ccc(Cl)cc1"
Data returned: 306 nM

Data request: Give its EC50 value. Item: "CCCc1nc(-c2cc(-c3cccc(S(C)(=O)=O)c3)ccc2-n2cc(C(F)(F)F)nc2C)c(-c2ccc(OC(F)(F)F)cc2)o1"
Data returned: 22 nM

* * *

# SYSTEM_TESTED: LXRβ (Homo sapiens)
# Construct: Co-transfection expression plasmids, comprising full-length LXRα (pCMX-h LXRα[…] or LXRβ (pCMX-hLXRβ)); expressed in transfected cells; host or cells: CV-1 African Green Monkey Kidney Cells
# TEST_DETAILS: Co-transfection assay (LXRE luciferase reporter), LXRβ
# Format: cell-based
# ASSAY_CONTEXT: LXRβ co-transfection; relative to high control 1-(2,4-difluorobenzyl)-2-oxo-6-(4-phenoxyphenyl)-4-(trifluoromethyl)-1,2-dihydropyridine-3-carbonitrile; read-out: % Efficacy
For each record, check the reported Emax: if it is below 90% write 1.0, else write 0.0.

Solved entries (count: 2):
COMPOUND | ASSIGNED_CLASS
Cc1nc(-c2cc(-c3cc(F)c(CO)c(S(C)(=O)=O)c3)ccc2-n2cc(C(F)(F)F)nc2C)c(-c2ccc(OC(F)F)cc2)o1 | 0.0
Cc1nc(-c2cc(-c3cc(F)c(CO)c(S(C)(=O)=O)c3)ccc2-n2cc(C(F)(F)F)nc2C)c(-c2ccc(OC(F)(F)C(F)F)cc2)o1 | 1.0

Data request: Strictly below 90%: is that where Emax of Cc1nc(C(F)(F)F)cn1-c1ccc(-c2cc(F)c(CO)c(S(C)(=O)=O)c2)cc1-c1nc(C(C)CO)oc1-c1ccc(OC(F)(F)F)cc1 (stereo not drawn) sits?
Data returned: 1.0

Data request: Strictly below 90%: is that where Emax of "Cc1nc(C(F)F)cn1-c1ccc(-c2cccc(S(C)(=O)=O)c2)cc1-c1cnnn1Cc1ccc(Cl)cc1" sits?
Data returned: 0.0

Data request: Strictly below 90%: is that where Emax of "Cc1nc(C(F)(F)F)cn1-c1ccc(-c2cccc(S(C)(=O)=O)c2)cc1-n1nncc1-c1ccc2c(c1)OC(F)(F)O2" sits?
Data returned: 0.0

* * *

# SYSTEM_TESTED: LXRβ (Homo sapiens, UniProt P55055)
# Construct: Co-transfection expression plasmids, comprising full-length LXRα (pCMX-h LXRα[…] or LXRβ (pCMX-hLXRβ)); expressed in transfected cells; host or cells: CV-1 African Green Monkey Kidney Cells
# TEST_DETAILS: Co-transfection assay (LXRE luciferase reporter), LXRβ
# Assay type: cell-based
# ASSAY_CONTEXT: LXRβ co-transfection; relative to high control 1-(2,4-difluorobenzyl)-2-oxo-6-(4-phenoxyphenyl)-4-(trifluoromethyl)-1,2-dihydropyridine-3-carbonitrile; read-out: % Efficacy
Please enter 1.0 where Emax is greater than or equal to 80%, and 0.0 where it is lower.

Solved entries (count: 3):
COMPOUND | ASSIGNED_CLASS
CS(=O)(=O)c1cccc(-c2ccc(-n3cnc(C(F)(F)F)c3)c(-n3nncc3-c3ccc(Cl)cc3)c2)c1 | 0.0
Cc1ccc(C(C)c2cnnn2-c2cc(-c3cc(Cl)c(CO)c(S(C)(=O)=O)c3)ccc2-n2cc(C(F)(F)F)nc2C)cc1 (stereo not drawn) | 0.0
Cc1nc(-c2cc(-c3ccc(CO)c(S(C)(=O)=O)c3)ccc2-n2cc(C(F)(F)F)nc2C)c(-c2ccc(OC(F)F)cc2)o1 | 1.0

Data request: Record "Cc1nc(C(F)(F)F)cn1-c1ccc(-c2cc(F)c(CO)c(S(C)(=O)=O)c2)cc1-c1ccnn1-c1ccc2c(c1)OC(F)(F)O2" ; criterion: Emax no lower than 80%. Met?
Data returned: 1.0

Data request: Record "Cc1nc(-c2cc(-c3cc(F)c(CO)c(S(C)(=O)=O)c3)ccc2-n2cc(C(F)(F)F)nc2C)c(-c2ccc3c(c2)CC(C)(C)O3)o1" ; criterion: Emax no lower than 80%. Met?
Data returned: 1.0

* * *

# SYSTEM_TESTED: LXRβ (Homo sapiens, UniProt P55055)
# Construct: Co-transfection expression plasmids, comprising full-length LXRα (pCMX-h LXRα[…] or LXRβ (pCMX-hLXRβ)); expressed in transfected cells; host or cells: CV-1 African Green Monkey Kidney Cells
# TEST_DETAILS: Co-transfection assay (LXRE luciferase reporter), LXRβ
# Type: cell-based
# ASSAY_CONTEXT: LXRβ co-transfection; relative to high control 1-(2,4-difluorobenzyl)-2-oxo-6-(4-phenoxyphenyl)-4-(trifluoromethyl)-1,2-dihydropyridine-3-carbonitrile; read-out: % Efficacy
For each record, check the reported Emax: if it is below 90% write Satisfied, else write Not satisfied.

Solved entries (count: 5):
COMPOUND | ASSIGNED_CLASS
Cc1nc(C(F)(F)F)cn1-c1ccc(-c2cccc(S(C)(=O)=O)c2)cc1-n1nncc1-c1cccc(OC(F)F)c1 [Example 37] | Not satisfied
CCc1nc(-c2cc(-c3cc(F)c(CO)c(S(C)(=O)=O)c3)ccc2-n2cc(C(F)(F)F)nc2C)c(-c2ccc3c(c2)OC(F)(F)O3)o1 [Example 479] | Satisfied
Cc1nc(-c2cc(-c3cccc(S(C)(=O)=O)c3)ccc2-n2cc(C(F)(F)F)nc2C)c(-c2ccc(N(C)C)cc2)o1 [Example 500] | Not satisfied
COc1ncc(-c2oc(C)nc2-c2cc(-c3cc(F)c(CO)c(S(C)(=O)=O)c3)ccc2-n2cc(C(F)(F)F)nc2C)cc1F [Example 440] | Satisfied
Cc1nc(C(F)F)cn1-c1ccc(-c2cc(F)c(CO)c(S(C)(=O)=O)c2)cc1-n1nncc1-c1ccc(OC(F)(F)F)cc1 [Example 220] | Not satisfied

Switching to the query record.
Data request: Strictly below 90%: is that where Emax of Cc1ccc(-c2oc(C)nc2-c2cc(-c3cccc(S(C)(=O)=O)c3)ccc2-n2cc(C(F)(F)F)nc2C)cc1 [Example 491] sits?
Data returned: Satisfied
